test: inhibitors of larval lipid processing in zebrafish, primary screen, whole organism, PED6 fluorescence, gall bladder and intestine (AID 686); conditions: Zebrafish larvae PED6 lipid processing, fluorescence scoring; screened at 20 µM (by protocol);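 also: larvae 5 to 7 days old with five fish per well; signal comes from phospholipase A2 cleavage of quenched PED6 carried via bile; overnight exposure to compound and PED6 before scoring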
Calls of active or inactive are those of the source.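 The calls were made as follows: active = a full or partial loss of lipid-probe fluorescence in the fish gall bladder, intestine or both, judged by eye; inactive = no fluorescence loss, or compound toxic to the fish.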
Outcome codes: active, inactive

1. Cc1ccc(C)c(-n2nnnc2SCC(=O)NCCC2=CCCCC2)c1: inactive
2. CCCCCCC(c1c(C)n(C)n(-c2ccccc2)c1=O)c1c(C)n(C)n(-c2ccccc2)c1=O: inactive
3. CC(=O)Nc1ccc(NC(=O)Cn2cnc3c(cnn3C(C)(C)C)c2=O)cc1: inactive
4. COc1cc(-c2nc(-c3ccncc3)no2)cc(OC)c1OC: inactive
5. Cc1ccc(Cn2c(SCC(N)=O)nc3c2c(=O)n(C)c(=O)n3C)cc1: inactive
6. c1cncc(C2Nc3ccccc3-c3nc4ccccc4n32)c1 (stereo not drawn): inactive
7. COc1cccc(NC(=O)c2ccccc2NS(C)(=O)=O)c1: inactive
8. c1ccc2c(SCc3cn4cccnc4n3)ncnc2c1: inactive
9. CC(C)c1cc(C(=O)Nc2cccnc2)no1: inactive
10. CC(OC(=O)CNC(=O)C12CC3CC(CC(C3)C1)C2)C(=O)Nc1ccc(N2CCOCC2)cc1 (stereo not drawn): inactive
11. c1ccc(-c2nc3cnccn3c2Nc2ccc3c(c2)OCCO3)cc1: inactive
12. O=C(NC1CCCCCCC1)C1CCN(c2nc3ccccc3o2)CC1: inactive
13. Cn1c(C(=O)NCc2cccnc2)cc2sccc21: inactive
14. CCC(=O)Nc1cc(Cl)ccc1N1CCN(C(=O)CC)CC1: inactive
15. COc1ccccc1N(CC(=O)NC1CCCC1)C(=O)CCC(=O)Nc1cc(C)on1: inactive
16. COc1cc(SC)ccc1C(=O)Nc1ccccc1C#N: inactive
17. COCCn1c(Sc2nc(C)cs2)nc2c1c(=O)[nH]c(=O)n2C: inactive
18. Cc1ccc2nc3c(cc2c1)CN(Cc1ccco1)C(=NCC1CCCO1)S3 (stereo not drawn): inactive
19. CC(C)(C)NC(=O)C(Cc1ccccc1)NS(=O)(=O)c1cccc2nsnc12 (stereo not drawn): inactive
20. CC(=O)NCCc1ccc(S(=O)(=O)NCc2ccc3c(c2)OCO3)cc1: inactive
21. CN(CC(=O)Nc1cccnc1)S(=O)(=O)c1cc(Cl)ccc1Cl: inactive
22. O=C(CSc1nc2ccccc2o1)N1CCN(C(=O)c2ccco2)CC1: inactive
23. Cc1cn(C2CC3OCC3O2)c(=O)[nH]c1=O (stereo not drawn): inactive
24. O=C1C2CCCN2C(c2ccccc2)N1c1ccc(Cl)cc1 (stereo not drawn): inactive
25. COCCCN1C(=O)C(O)=C(C(C)=O)C1c1ccccn1 (stereo not drawn): active
26. COc1ccc(C(NC(C)=O)c2ccc3cccnc3c2O)c(OC)c1 (stereo not drawn): inactive
27. COc1cccc2c(=O)cc(C)n(CC(=O)Nc3ccc(C)c(C)c3)c12: inactive
28. CCCc1ccccc1OCCNC(C)=O: inactive

====

assay: blockers of RIG-like receptor reporter activation – cell-based, Sendai virus stimulus, luciferase, 10K MLSCN set, TLR/RLR signaling modifier project, primary screen (AID 602276); details: HEK293 RL24 IRF3 luciferase reporter, at 10 µM, stronger effect = higher value;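 also: firefly luciferase from ISG56 promoter only with Renilla not read in this screen; 0% = Sendai virus plus DMSO and 100% = medium plus DMSO without virus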
Endpoint: inhibition (%)

1) COc1ccc(-c2cc3nc4n(c(=O)c3s2)CCC4)cc1: 12.2
2) CC1CCN(S(=O)(=O)c2ccc3[nH]c(=O)cc(C(=O)O)c3c2)CC1: -2.34
3) C=CCn1c(=O)[nH]c2cc(C(=O)N3CCN(c4ccc(C(C)=O)cc4)CC3)ccc2c1=O: -1.65
4) CCOC(=O)N1CCC(NC(=O)C2CCC(Cn3c(=O)[nH]c4ccccc4c3=O)CC2)CC1 (stereo not drawn): 6.35
5) Cc1nc(C)n(C(C)CC(=O)O)n1 (stereo not drawn): 5.03
6) O=C(CCCn1ncn2c(cc3occc32)c1=O)N1CCc2ccccc2C1: 8.38
7) COc1ccc(C(=O)c2coc3ccc(O)c(CN4CCCCC4)c23)cc1: -9.24
8) CCOC(=O)NC(=O)CSc1nnc(C)s1: 18.9

====

fluorescence slope listing for selected compounds.
target: Voltage-gated potassium channel subunit beta-2 (Rattus norvegicus); assay: inhibitors of rat Kvbeta2 reductase activity – biochemical, NADPH fluorescence, primary screen (AID 622); conditions: recombinant KvBeta, 4-cyanobenzaldehyde reduction, at 10 µM, stronger effect = higher value;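 also: slope of raw intensity against log time taken from 70 to 1610 s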
Active and inactive are the calls of the source.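 The calls were made as follows: active = fluorescence slope higher than the sample average by over 3 SD (cut at about -0.22 in these data, passing the limit was not always enough); inactive = the rest.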
Endpoint: fluorescence slope

1) CCOc1cc(C2/C(=C(/O)c3ccc(OC(C)C)cc3)C(=O)C(=O)N2CCCOC)ccc1O (centres undefined): -0.513 (inactive)
2) COc1ccc(N2CCN(C(=O)CCNS(=O)(=O)c3ccc(Br)s3)CC2)cc1: -0.423 (inactive)
3) Cc1nc(NC2=NCN(CCc3ccccc3)CN2)nc2c(C)cccc12: -0.457 (inactive)
4) Cc1ccc(S(=O)(=O)N2CCN(C(=O)CSc3nnnn3C)C2)cc1: -0.35 (inactive)
5) Cc1cc(C(=O)Nc2ccc(S(=O)(=O)Nc3onc(C)c3C)cc2)cs1: -0.361 (inactive)
6) COc1ccccc1NC(=O)CSc1nnc(Cn2nnc(-c3ccccc3)n2)n1-c1ccccc1: -0.452 (inactive)
7) CN(C)S(=O)(=O)c1ccc(C(=O)N2CCCC2c2nc3ccccc3s2)cc1 (centres undefined): -0.524 (inactive)
8) O=C(CCCC(=O)N(CC(=O)NC1CCCCC1)Cc1ccc2c(c1)OCO2)Nc1ccccn1: -0.479 (inactive)
9) COC(=O)C(C)C1Sc2ccccc2NC1=O (centres undefined): -0.28 (inactive)

====

Quick list: inhibition per entry.
assay: blockers of RIG-like receptor reporter activation – cell-based, Sendai virus stimulus, luciferase, 10K MLSCN set, TLR/RLR signaling modifier project, primary screen (AID 602276); details: HEK293 RL24 IRF3 luciferase reporter, at 10 µM, stronger effect = higher value;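 also: firefly luciferase from ISG56 promoter only with Renilla not read in this screen; 0% = Sendai virus plus DMSO and 100% = medium plus DMSO without virus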
Endpoint: inhibition (%)

1) CCOC(=O)Cc1csc(NC(=O)c2cccc(OC)c2)n1: 4.13
2) Cc1onc(-c2ccccc2)c1C(=O)NCCN1CCOCC1: 0.171
3) Nc1nonc1-n1nnc(C(=O)c2ccccc2)c1-c1ccccc1: 10.9
4) COc1ccc(CC(=O)Nc2cc(Cl)ccc2O)cc1: -8.56
5) CC(=O)c1ccc(OCC(O)CN2CCN(Cc3ccc4c(c3)OCO4)CC2)cc1 (stereo not drawn): 11.6
6) Cc1nnc(SCC(=O)NCc2ccc3c(c2)OCO3)s1: 5.5
7) CC(=O)Nc1c(O)[nH]c2ccccc12: 10.4
8) CCc1cc2c(=O)c(-c3nc4ccccc4[nH]3)coc2c(CN2CCC(C)CC2)c1O: 7.38

====

assay: endothelial E-selectin expression blockers – imaging, HUVEC, immunofluorescence, MLSMR starter and 10KST1 sets, primary screen (AID 487); conditions: HUVEC TNFalpha-induced E-selectin immunofluorescence imaging, at 2 µM; stronger effect = higher value;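 also: signal is fraction of cell area covered by stained E-selectin grains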
Label scheme, based on inhibition: group A: < -40%; group B: ≥ -40% and < -10%; group C: ≥ -10%

1) Cc1ccc(S(=O)(=O)CC2CSc3nnc(C)c(=O)n32)cc1 (configuration not stated): group B
2) c1ccc(-c2noc(C34CC5CC(CC(C5)C3)C4)n2)nc1: group A
3) O=C(O)C(c1ccccc1)N1CCCC1 (configuration not stated): group A
4) Cc1cc(=O)[nH]c(SCC(=O)NCc2ccco2)n1: group C
5) CCOc1ccc(CCNc2nc3c(c(=O)n(C)c(=O)n3C)n2CC)cc1OCC: group B
6) O=C(COc1ccc(Cl)cc1)Nc1nc(-c2cccs2)cs1: group B
7) CCOC(=O)N1CCN(C(=O)CN(Cc2ccccc2)S(=O)(=O)c2ccc(OC)c(C)c2)CC1: group C
8) Cc1ccc(C)c(N2C(=O)CN=C2Nc2ccccc2Cl)c1: group C
9) Cc1ccccc1-c1nc(CN2CCC(C(=O)NCCCN3CCCC3)CC2)c(C)o1: group C
10) C=CCc1ccccc1OCC(O)CN1CCN(Cc2ccc3c(c2)OCO3)CC1 (configuration not stated): group C
11) Cc1sc2nc(SCC(=O)NCCO)n(C)c(=O)c2c1C: group C
12) CCN(CC)S(=O)(=O)c1ccc(NC(=O)c2cccc3c2C(=O)N(CCOC)C3)cc1: group A
13) COc1cc(SC)ccc1C(=O)Nc1ccccc1C#N: group A
14) CCN(CC)S(=O)(=O)c1ccc2c(c1)c(=O)c(C(=O)NCCOC)cn2C: group B
15) CCCCn1c(CN(C)Cc2ccccc2)nc2c1c(=O)n(C)c(=O)n2C: group C
16) COc1cccc(Nc2nc(=O)[nH]nc2C)c1: group B
17) Cc1cc(C(F)F)n2ncc(C(=O)NC3CCCCCC3)c2n1: group C
18) C/C(Cl)=C\Cn1c(Nc2ccc(C)cc2)nc2c1c(=O)n(C)c(=O)n2C: group A
19) CCOc1ccc(NC(=O)c2ccncc2)cc1: group A
20) CCOC(=O)c1ccc(NC(=O)CCNc2c(N3CCCC3)c(=O)c2=O)cc1: group B
21) COC(=O)Cn1ncc2c(C)n(Cc3ccccc3)c(C)c2c1=O: group A
22) CN1CCN(c2ncnc3c2cnn3-c2ccc(Cl)cc2)CC1: group B
23) CC(=O)N1CCc2cc(S(=O)(=O)CCC(=O)N3CCN(c4ccccn4)CC3)ccc21: group A
24) Cc1ccc(S(=O)(=O)N2CCCC(c3nnc4n3-c3ccccc3SC4)C2)cc1 (configuration not stated): group B
25) CCn1c(SCC(=O)Nc2cc(C)on2)nc2sc3c(c2c1=O)CCCC3: group B
26) CCCNC(=O)c1cc(-c2ccco2)on1: group B
